target desc: RgpB (Porphyromonas gingivalis, UniProt P95493)
Construct: 0.02 nM RgpB, isolated from culture of Porphyromonas gingivalis; endogenous in cells
Sequence (P95493 230-664): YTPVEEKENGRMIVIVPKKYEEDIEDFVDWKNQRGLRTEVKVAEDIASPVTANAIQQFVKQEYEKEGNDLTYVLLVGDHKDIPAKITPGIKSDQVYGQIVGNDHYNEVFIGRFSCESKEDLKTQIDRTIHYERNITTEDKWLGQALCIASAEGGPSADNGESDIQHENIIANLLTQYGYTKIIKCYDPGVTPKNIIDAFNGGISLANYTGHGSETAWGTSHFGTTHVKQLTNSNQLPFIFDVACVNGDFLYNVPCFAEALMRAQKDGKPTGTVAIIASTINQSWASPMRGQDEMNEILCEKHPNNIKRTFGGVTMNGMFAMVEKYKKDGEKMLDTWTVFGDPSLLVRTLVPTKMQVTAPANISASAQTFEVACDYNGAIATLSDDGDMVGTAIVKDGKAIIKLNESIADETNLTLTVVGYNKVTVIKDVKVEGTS
assay overview: RgpB inhibition, fluorogenic assay
Type: biochemical
condition notes: Activity (RgpB IC50), 0.02 nM RgpB, 10 μM Boc-Phe-Ser-Arg-MCA, 90 minutes, 37° C., pH=7.5
pIC50: −log10 of the molar value.
pIC50 by entry:

{"compound": "N#CN1C[C@H](O)C[C@@H]1c1ccc2c(N)nccc2c1", "target desc": "RgpB (Porphyromonas gingivalis, UniProt P95493)", "pIC50": "> 7.00"}
{"compound": "CC(CN(C)C#N)Oc1ccnc(N)c1 (stereo not shown)", "target desc": "RgpB (Porphyromonas gingivalis, UniProt P95493)", "pIC50": "6.00 to 7.00"}
{"compound": "COC(C)(C)C(=O)NC(Cc1ccnc(N)c1)C(=O)COc1ccon1 (stereo not shown)", "target desc": "RgpB (Porphyromonas gingivalis, UniProt P95493)", "pIC50": "5.00 to 6.00"}
{"compound": "N#CN1CCN(c2ccnc(N)c2)CC1", "target desc": "RgpB (Porphyromonas gingivalis, UniProt P95493)", "pIC50": "5.00 to 6.00"}
{"compound": "N#CN1CCC[C@H]1C(O)Cc1ccnc(N)c1 (stereo partly shown)", "target desc": "RgpB (Porphyromonas gingivalis, UniProt P95493)", "pIC50": "< 4.00"}
{"compound": "Nc1ccc(CC(NC(=O)C2CCCC2)C(=O)COc2c(F)c(F)cc(F)c2F)cn1 (stereo not shown)", "target desc": "RgpB (Porphyromonas gingivalis, UniProt P95493)", "pIC50": "> 7.00"}
{"compound": "N#CN1CCC(CCOc2ccnc(N)c2)C1 (stereo not shown)", "target desc": "RgpB (Porphyromonas gingivalis, UniProt P95493)", "pIC50": "5.00 to 6.00"}
{"compound": "Nc1ccc(CC(NC(=O)C2CCCC2)C(=O)COc2c(F)ccc(F)c2F)cn1 (stereo not shown)", "target desc": "RgpB (Porphyromonas gingivalis, UniProt P95493)", "pIC50": "> 7.00"}
{"compound": "CN(C#N)Cc1cc2ccnc(N)c2o1", "target desc": "RgpB (Porphyromonas gingivalis, UniProt P95493)", "pIC50": "6.00 to 7.00"}
{"compound": "N#CN1CCC(Oc2ccnc(N)c2)CC1", "target desc": "RgpB (Porphyromonas gingivalis, UniProt P95493)", "pIC50": "< 4.00"}
{"compound": "N#CN1CCC[C@H]1c1ccc2c(N)nccc2c1", "target desc": "RgpB (Porphyromonas gingivalis, UniProt P95493)", "pIC50": "6.00 to 7.00"}
{"compound": "CN(C#N)C(COc1ccnc(N)c1)c1ccccc1 (stereo not shown)", "target desc": "RgpB (Porphyromonas gingivalis, UniProt P95493)", "pIC50": "5.00 to 6.00"}
{"compound": "N#CN1CCCCC1COc1ccnc(N)c1 (stereo not shown)", "target desc": "RgpB (Porphyromonas gingivalis, UniProt P95493)", "pIC50": "6.00 to 7.00"}
{"compound": "CC(c1ccc2c(N)nccc2c1)N(C)C#N (stereo not shown)", "target desc": "RgpB (Porphyromonas gingivalis, UniProt P95493)", "pIC50": "5.00 to 6.00"}
{"compound": "CC(C)C(COc1ccnc(N)c1)N(C)C#N (stereo not shown)", "target desc": "RgpB (Porphyromonas gingivalis, UniProt P95493)", "pIC50": "5.00 to 6.00"}
{"compound": "N#CN1c2ccccc2CC1COc1ccnc(N)c1 (stereo not shown)", "target desc": "RgpB (Porphyromonas gingivalis, UniProt P95493)", "pIC50": "4.00 to 5.00"}
{"compound": "N#CN1C[C@@H](O)C[C@H]1c1ccc2c(N)nccc2c1 [Compound 50a]", "target desc": "RgpB (Porphyromonas gingivalis, UniProt P95493)", "pIC50": "> 7.00"}
{"compound": "Nc1ccc(CCC(NC(=O)C2CCCC2)C(=O)COc2ccon2)cn1 (stereo not shown)", "target desc": "RgpB (Porphyromonas gingivalis, UniProt P95493)", "pIC50": "> 7.00"}
{"compound": "COC(C)(C)C(=O)NC(Cc1ccc(N)nc1)C(=O)COc1ccon1 (stereo not shown)", "target desc": "RgpB (Porphyromonas gingivalis, UniProt P95493)", "pIC50": "6.00 to 7.00"}
{"compound": "N#CN1CC(COc2ccnc(N)c2)C1", "target desc": "RgpB (Porphyromonas gingivalis, UniProt P95493)", "pIC50": "< 4.00"}
{"compound": "N#CN1CCCC(Oc2ccnc(N)c2)C1 (stereo not shown)", "target desc": "RgpB (Porphyromonas gingivalis, UniProt P95493)", "pIC50": "6.00 to 7.00"}
{"compound": "COC(C)(C)C(=O)NC(Cc1ccc(N)nc1)C(=O)COc1c(F)c(F)cc(F)c1F (stereo not shown)", "target desc": "RgpB (Porphyromonas gingivalis, UniProt P95493)", "pIC50": "> 7.00"}
{"compound": "N#CN1CCC[C@H]1COc1ccnc(N)c1", "target desc": "RgpB (Porphyromonas gingivalis, UniProt P95493)", "pIC50": "> 7.00"}
{"compound": "Nc1cc(CC(NC(=O)C2CCCC2)C(=O)COc2c(F)c(F)cc(F)c2F)ccn1 (stereo not shown)", "target desc": "RgpB (Porphyromonas gingivalis, UniProt P95493)", "pIC50": "> 7.00"}
{"compound": "N#CN1CCC[C@H]1COc1cc(N)ncc1Cl", "target desc": "RgpB (Porphyromonas gingivalis, UniProt P95493)", "pIC50": "4.00 to 5.00"}
{"compound": "N#CN1CCC[C@H]1COc1cc(N)ncc1Br", "target desc": "RgpB (Porphyromonas gingivalis, UniProt P95493)", "pIC50": "4.00 to 5.00"}
{"compound": "CCC(COc1ccnc(N)c1)N(C)C#N (stereo not shown)", "target desc": "RgpB (Porphyromonas gingivalis, UniProt P95493)", "pIC50": "5.00 to 6.00"}
{"compound": "COC(C)(C)C(=O)NC(Cc1ccc(N)nc1)C(=O)COc1c(F)ccc(F)c1F (stereo not shown) [Compound 61]", "target desc": "RgpB (Porphyromonas gingivalis, UniProt P95493)", "pIC50": "> 7.00"}
{"compound": "N#CN1CCC(Sc2ccnc(N)c2)C1 (stereo not shown)", "target desc": "RgpB (Porphyromonas gingivalis, UniProt P95493)", "pIC50": "4.00 to 5.00"}
{"compound": "Nc1ccc(CC(NC(=O)C2CCCC2)C(=O)COc2c(F)cccc2F)cn1 (stereo not shown)", "target desc": "RgpB (Porphyromonas gingivalis, UniProt P95493)", "pIC50": "> 7.00"}
{"compound": "CN(C#N)c1ccc2ccnc(N)c2c1", "target desc": "RgpB (Porphyromonas gingivalis, UniProt P95493)", "pIC50": "< 4.00"}

---

target desc: RgpB (Porphyromonas gingivalis)
Construct: 0.02 nM RgpB, isolated from culture of Porphyromonas gingivalis; endogenous in cells
assay overview: RgpB inhibition, fluorogenic assay
Assay type: biochemical
condition notes: Activity (RgpB IC50), 0.02 nM RgpB, 10 μM Boc-Phe-Ser-Arg-MCA, 90 minutes, 37° C., pH=7.5

{"compound": "Nc1ccc(C[C@@H](NC(=O)C2CCCC2)C(=O)COc2c(F)c(F)cc(F)c2F)cn1 [Compound 57]", "IC50": "< 100 nM"}
{"compound": "CC(C)N(C#N)CCOc1ccnc(N)c1 [Compound 39]", "IC50": "10000 to 100000 nM"}
{"compound": "N#CN1Cc2ccccc2C1COc1ccnc(N)c1 (centres unmarked) [Compound 25]", "IC50": "100 to 1000 nM"}
{"compound": "N#CN1C[C@@H](O)C[C@@H]1c1ccc2c(N)nccc2c1 [Compound 50b]", "IC50": "< 100 nM"}
{"compound": "Nc1cc(CC(NC(=O)C2CCCC2)C(=O)COc2ccon2)ccn1 (centres unmarked) [Compound 70]", "IC50": "100 to 1000 nM"}
{"compound": "Cc1cnc(N)cc1OC[C@@H]1CCCN1C#N [Compound 29]", "IC50": "10000 to 100000 nM"}
{"compound": "N#CN1CCC[C@@H]1c1ccc2c(N)nccc2c1 [Compound 43]", "IC50": "< 100 nM"}
{"compound": "N#CN1CCC[C@H]1/C=C/c1ccnc(N)c1 [Compound 32]", "IC50": "100 to 1000 nM"}
{"compound": "N#CN1CCCCC1c1ccc2c(N)nccc2c1 (centres unmarked) [Compound 37]", "IC50": "100 to 1000 nM"}
{"compound": "N#CN1CCC1COc1ccnc(N)c1 (centres unmarked) [Compound 11]", "IC50": "> 100000 nM"}
{"compound": "N#CN1CCCC1CCc1ccnc(N)c1 (centres unmarked) [Compound 21]", "IC50": "100 to 1000 nM"}
{"compound": "N#CN1CCCC1CCOc1ccnc(N)c1 (centres unmarked) [Compound 16]", "IC50": "10000 to 100000 nM"}
{"compound": "COC(C)(C)C(=O)NC(Cc1ccnc(N)c1)C(=O)COc1c(F)c(F)cc(F)c1F (centres unmarked) [Compound 65]", "IC50": "< 100 nM"}
{"compound": "CN(C#N)Cc1cc2c(N)nccc2o1 [Compound 4]", "IC50": "10000 to 100000 nM"}
{"compound": "Nc1cc(CC(NC(=O)C2CCCC2)C(=O)COc2c(F)ccc(F)c2F)ccn1 (centres unmarked) [Compound 69]", "IC50": "< 100 nM"}
{"compound": "Nc1cc(CCC(NC(=O)C2CCCC2)C(=O)COc2ccon2)ccn1 (centres unmarked) [Compound 71]", "IC50": "100 to 1000 nM"}
{"compound": "CNc1nccc2cc([C@H]3CCCN3C#N)ccc12 [Compound 51b]", "IC50": "10000 to 100000 nM"}
{"compound": "CNc1nccc2cc([C@@H]3CCCN3C#N)ccc12 [Compound 51a]", "IC50": "10000 to 100000 nM"}
{"compound": "COC(C)(C)C(=O)NC(Cc1ccc(N)nc1)C(=O)COc1c(F)cccc1F (centres unmarked) [Compound 58]", "IC50": "100 to 1000 nM"}
{"compound": "CN(C#N)c1ccccc1Oc1ccnc(N)c1 [Compound 27]", "IC50": "> 100000 nM"}

All values here come from patent US11059786B2.
